Experiment: Plasma levels after intramuscular injection in the dog
Parameters: species or system chien
Conditions: dog, in vivo, im, 15 mg/kg
Endpoint Label: concentration at 4 h

* CCOCCOCCOC(=O)c1cn(CC)c2cc3c(cc2c1=O)OCO3 [JL 93V] | 10800 ng/mL

====

Test: Plasma levels after intravenous injection in the dog
Parameters: species or system chien
Details: in vivo, 15 mg/kg
Endpoint Label: concentration at 2 h (ng/mL)

• CCOCCOCCOC(=O)c1cn(CC)c2cc3c(cc2c1=O)OCO3 [JL 93V] = 23400

====

Test: Plasma levels after intramuscular injection in the dog
Design: species or system chien
Details: dog, in vivo, im, 15 mg/kg
Endpoint Label: concentration at 0.5 h (ng/mL)

- CCOCCOCCOC(=O)c1cn(CC)c2cc3c(cc2c1=O)OCO3 [JL 93V]: 7250

====

Test: Plasma levels after intramuscular injection in the dog
Design: species or system chien
Settings: dog, in vivo, im, 15 mg/kg
Endpoint Label: concentration at 6 h (ng/mL)

* CCOCCOCCOC(=O)c1cn(CC)c2cc3c(cc2c1=O)OCO3 [JL 93V] | 6080

====

Assay: Plasma levels after intramuscular injection in the dog
Design: species or system chien
Conditions: dog, in vivo, im; chien, i.m., 15 mg/kg en équivalent acide oxolinique, 24 h; read-out: Taux plasmatiques
Endpoint Label: concentration at 24 h (ng/mL)

* CCn1cc(C(=O)O)c(=O)c2cc3c(cc21)OCO3 [Acide oxolinique, acide oxolinique, reference compound] | 980

====

Test: Acute toxicity, lethal dose 50 in the mouse
Conditions: in vivo, iv, souris, voie intraveineuse, read-out: DL 50 (the source's name)
Endpoint Label: LD50 (mg/kg)

- CCOCCOCCOC(=O)c1cn(CC)c2cc3c(cc2c1=O)OCO3 [JL 93V]: 240

====

Test: Plasma levels after intramuscular injection in the dog
Set-up: species or system chien
Conditions: dog, in vivo, im, 15 mg/kg
Endpoint Label: concentration at 1 h

• CCOCCOCCOC(=O)c1cn(CC)c2cc3c(cc2c1=O)OCO3 [JL 93V] = 16100 ng/mL

====

Assay: Plasma levels after intramuscular injection in the dog
Set-up: species or system chien
Conditions: dog, in vivo, im, 15 mg/kg
Endpoint Label: concentration at 2 h

• CCOCCOCCOC(=O)c1cn(CC)c2cc3c(cc2c1=O)OCO3 [JL 93V] = 15600 ng/mL

====

Assay: Plasma levels after intravenous injection in the dog
Set-up: species or system chien
Conditions: in vivo, 15 mg/kg
Endpoint Label: concentration at 10 h (ng/mL)

- CCOCCOCCOC(=O)c1cn(CC)c2cc3c(cc2c1=O)OCO3 [JL 93V]: 6350

====

Experiment: Hydrolysis kinetics at room temperature
Type: physicochemical
Conditions: 0.001 m naoh; room temperature; after 24 heures of hydrolysis in hydroxyde de sodium 0,001 M; read-out: libération du principe actif (acide oxolinique)
Endpoint Label: degraded at 24 h

• CCOCCOCCOC(=O)c1cn(CC)c2cc3c(cc2c1=O)OCO3 [JL 93V] = ~50%

====

Experiment: Plasma levels after intramuscular injection in the rat
Format: in vivo
Details: in vivo, im, 20 mg/kg
Endpoint Label: concentration at 1 h (ng/mL)

* CCOCCOCCOC(=O)c1cn(CC)c2cc3c(cc2c1=O)OCO3 [JL 93V] | 15700

====

Experiment: Plasma levels after intramuscular injection in the rat
Assay type: in vivo
Conditions: in vivo, im, 20 mg/kg
Endpoint Label: concentration at 3 h

- CCOCCOCCOC(=O)c1cn(CC)c2cc3c(cc2c1=O)OCO3 [JL 93V]: 8780 ng/mL

====

Assay: Plasma levels after intramuscular injection in the rat
Type: in vivo
Conditions: in vivo, im, 20 mg/kg en équivalent acide oxolinique, 1 h, read-out: Taux plasmatiques
Endpoint Label: concentration at 1 h (ng/mL)

* CCn1cc(C(=O)O)c(=O)c2cc3c(cc21)OCO3 [Acide oxolinique, acide oxolinique, reference compound] | 785

====

Experiment: Plasma levels after intramuscular injection in the dog
Set-up: species or system chien
Conditions: dog, in vivo, im, 15 mg/kg
Endpoint Label: concentration at 24 h (ng/mL)

* CCOCCOCCOC(=O)c1cn(CC)c2cc3c(cc2c1=O)OCO3 [JL 93V] | 450

====

Assay: Plasma levels after intravenous injection in the dog
Design: species or system chien
Settings: in vivo, 15 mg/kg
Endpoint Label: concentration at 8 h (ng/mL)

- CCOCCOCCOC(=O)c1cn(CC)c2cc3c(cc2c1=O)OCO3 [JL 93V]: 8230

====

Assay: Plasma levels after intramuscular injection in the dog
Set-up: species or system chien
Conditions: dog, in vivo, im; chien, i.m., 15 mg/kg en équivalent acide oxolinique, 4 h; read-out: Taux plasmatiques
Endpoint Label: concentration at 4 h (ng/mL)

• CCn1cc(C(=O)O)c(=O)c2cc3c(cc21)OCO3 [Acide oxolinique, acide oxolinique, reference compound] = 3030

====

Assay: Plasma levels after intramuscular injection in the dog
Parameters: species or system chien
Conditions: dog, in vivo, im; chien, i.m., 15 mg/kg en équivalent acide oxolinique, 6 h; read-out: Taux plasmatiques
Endpoint Label: concentration at 6 h (ng/mL)

- CCn1cc(C(=O)O)c(=O)c2cc3c(cc21)OCO3 [Acide oxolinique, acide oxolinique, reference compound]: 2470

====

Test: Plasma levels after intramuscular injection in the rat
Format: in vivo
Details: in vivo, im, 20 mg/kg
Endpoint Label: concentration at 6 h (ng/mL)

- CCOCCOCCOC(=O)c1cn(CC)c2cc3c(cc2c1=O)OCO3 [JL 93V]: 3420

====

Test: Acute toxicity, lethal dose 50 in the mouse
Details: in vivo, po, souris, voie orale, read-out: DL 50 (the source's name)
Endpoint Label: LD50 (mg/kg)

* CCOCCOCCOC(=O)c1cn(CC)c2cc3c(cc2c1=O)OCO3 [JL 93V] | 1120

Cited source for all entries: patent EP0300107A1
